Where these numbers come from: patent US9618524B2

List of Semi-quantitative analysis of proteins binding to different plaque particles: Abeta-42 values.
# tested on: T1, Abeta-42 plaque particles (Homo sapiens, UniProt P05067)
# T1 construct: Abeta 1-42
# assay notes: Mass spectroscopy proteomics, semi-quantitative binding affinity of serum proteins (plaqueproteome, Table 2)
# experimental context: higher number = stronger affinity
# Description: Next to isolate serum derived Abeta-42 plaque particles, the plasma or serum samples obtained from AD subjects were first centrifuged at 5,000 rpm for 5 min and the supernatants were transferred to new centrifuge tubes. Next, the supernatants were diluted in PBS to make 50% of the serum and plasma samples and used for incubation with Abeta-42 plaque oligomers/aggregates. […] All MS/MS samples were analyzed using Sequest (Thermo Fisher Scientific, San Jose, Calif., USA; version 1.0). […]
assay metric: Semi-quantitative analysis of proteins binding to different plaque particles: Abeta-42

[
  {
    "molecule": "Ig kappa chain V-I region BAN (protein) DIQMTQSPSSLSASVGDRVTITCRASQGISNYLAWFQQKPGKAPKSLIYAASSLQSGVPSKFSGSGSGTDFTLTISSLQPEDFATYYCQQYNSYP",
    "recorded measurement": 2
  },
  {
    "molecule": "Ig gamma-2 chain C region (protein) ASTKGPSVFPLAPCSRSTSESTAALGCLVKDYFPEPVTVSWNSGALTSGVHTFPAVLQSSGLYSLSSVVTVPSSNFGTQTYTCNVDHKPSNTKVDKTVERKCCVECPPCPAPPVAGPSVFLFPPKPKDTLMISRTPEVTCVVVDVSHEDPEVQFNWYVDGVEVHNAKTKPREEQFNSTFRVVSVLTVVHQDWLNGKEYKCKVSNKGLPAPIEKTISKTKGQPREPQVYTLPPSREEMTKNQVSLTCLVKGFYPSDISVEWESNGQPENNYKTTPPMLDSDGSFFLYSKLTVDKSRWQQGNVFSCSVMHEALHNHYTQKSLSLSPGK",
    "recorded measurement": 11
  },
  {
    "molecule": "Ig heavy chain V-I region HG3 (protein) QVQLVQSGAEVKKPGASVKVSCKASGYTFTSYYMHWVRQAPGQGLEWMGIINPSGGSTSYAQKFQGRVTMTRDTSTSTVYMELSSLRSEDTAVYYCAR",
    "recorded measurement": 2
  }
]
